# assay_target: T1, human MerTK (human, UniProt Q12866 26-499)
# T1 construct: also called HuMER
# T1 sequence: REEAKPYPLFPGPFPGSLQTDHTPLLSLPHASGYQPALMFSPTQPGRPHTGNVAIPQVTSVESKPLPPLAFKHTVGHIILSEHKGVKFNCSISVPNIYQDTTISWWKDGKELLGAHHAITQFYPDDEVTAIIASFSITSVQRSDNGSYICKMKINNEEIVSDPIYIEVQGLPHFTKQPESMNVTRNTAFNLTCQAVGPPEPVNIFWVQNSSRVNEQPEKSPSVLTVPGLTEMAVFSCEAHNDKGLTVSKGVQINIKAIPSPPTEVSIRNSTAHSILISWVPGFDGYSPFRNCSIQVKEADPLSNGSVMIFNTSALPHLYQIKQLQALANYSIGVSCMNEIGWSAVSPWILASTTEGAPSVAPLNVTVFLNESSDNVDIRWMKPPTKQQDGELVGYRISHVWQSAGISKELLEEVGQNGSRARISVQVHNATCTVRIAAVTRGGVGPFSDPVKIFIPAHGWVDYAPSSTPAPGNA
# experiment_summary: SPR BIAcore T200, Ab captured, 37C
pKd: −log10 of the molar value.
Measured pKd of individual entries
observed_property: pKd

* h9E3.FN.V1 HC M78L (antibody, human IgG1, name in Kabat numbering, V domains shown, Framework variant of h9E3.FN.v1 (human IgG1)) VH: EQQLVESGGGLIQPGGSLRLSCAVSGFSLSSNAMSWVRQAPGKGLEWIGIISSSGSTYSASWAKGRFTISKDSSKNTLYLQMNSLRAEDTAVYFCARVGFFVGYGAYDYGIIHRLDLWGQGTLVTVSS VL: DAQLTQSPSTLSASVGDRVTITCQSSKSIYNNNWLSWYQQKPGKPPKLLIYDASDLASGVPSRFSGSGSGTEFTLTISSLQPDDFATYYCAGGYSGDSDYAFGGGTKVEIK | 7.90
* h10F7.v1 (antibody, V domains shown, also called h10F7.V1 (Parent); 10F7 Humanized mAb V1) VH: EQQLVESGGGLVQPGGSLRLSCAVSGFSLSGYAMSWVRQAPGKGLEYIGVISSSGSSYYPSWAKGRFTISKDSSKNTVYLQMGSLRAEDMAVYFCARVQFYVGYAVYGYGIIDRLDLWGQGTLVTVSS VL: DAVLTQSPDSLAVSLGERATINCQSSKSVYNNNWLSWYQQKPGQPPKLLIYRASTLESGVPDRFSGSGSGTDFTLTISSLQAEDVAVYFCAGGYSSSSSANAFGGGTKVEIK | 8.14
* h10F7.V1 HC F91Y (antibody, name in Kabat numbering, V domains shown, Framework variant of h10F7.v1 (human IgG1)) VH: EQQLVESGGGLVQPGGSLRLSCAVSGFSLSGYAMSWVRQAPGKGLEYIGVISSSGSSYYPSWAKGRFTISKDSSKNTVYLQMGSLRAEDMAVYYCARVQFYVGYAVYGYGIIDRLDLWGQGTLVTVSS VL: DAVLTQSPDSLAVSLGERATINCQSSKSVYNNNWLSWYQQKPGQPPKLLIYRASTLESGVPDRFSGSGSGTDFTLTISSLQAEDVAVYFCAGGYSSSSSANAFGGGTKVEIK | 8.19
* h10F7.V1 HC V78L (antibody, human IgG1, name in Kabat numbering, V domains shown, Framework variant of h10F7.v1 (human IgG1)) VH: EQQLVESGGGLVQPGGSLRLSCAVSGFSLSGYAMSWVRQAPGKGLEYIGVISSSGSSYYPSWAKGRFTISKDSSKNTLYLQMGSLRAEDMAVYFCARVQFYVGYAVYGYGIIDRLDLWGQGTLVTVSS VL: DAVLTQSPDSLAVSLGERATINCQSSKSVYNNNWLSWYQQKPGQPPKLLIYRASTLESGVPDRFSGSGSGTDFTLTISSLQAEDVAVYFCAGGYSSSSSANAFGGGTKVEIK | 8.29
* h10C3.v1 (antibody, V domains shown, also called h10C3.V1 (Parent); 10C3 Humanized mAb V1) VH: EQQLVESGGGLVQPGGSLRLSCAASGFSLSGYTMGWVRQAPGKGLEYIGVISSGGTTYYTNWAKGRFTISKDSSKNTVYLQMGSLRAEDMAVYFCARVAFTAYGGGGFPTLHRLDLWGQGTLVTVSS VL: DQVLTQSPDSLAVSLGERATINCQSSESVYNNDYLAWYQQKPGQPPKLLIYSASTLASGVPDRFSGSGSGTDFTLTISSLQAEDVAVYYCAGGYLGNNVFGGGTKVEIK | 7.86
* h13B4.V1 HC W47Y (antibody, human IgG1, name in Kabat numbering, V domains shown, Framework variant of h13B4.v1 (human IgG1)) VH: EQQLVESGEGLVQPGGSLRLSCAVSGFSLSSYAMGWVRQAPGKGLEYIGIINSYGNTYYANWAKGRFTISRDSSKNTVYLQMGSLRAEDMAVYFCARDPGVSSNLWGPGTLVTVSS VL: DVQMTQSPSTLSASVGDRVTITCQASQNIYSGLAWYQQKPGKPPKLLIYGASKLASGVPSRFSGSGSGTEFTLTISSLQPDDFATYYCQATYYSSNSVAFGGGTKVEIK | 8.51
* h10C3.V1 LC L4M (antibody, human IgG1, name in Kabat numbering, V domains shown, Framework variant of h10C3.v1 (human IgG1)) VH: EQQLVESGGGLVQPGGSLRLSCAASGFSLSGYTMGWVRQAPGKGLEYIGVISSGGTTYYTNWAKGRFTISKDSSKNTVYLQMGSLRAEDMAVYFCARVAFTAYGGGGFPTLHRLDLWGQGTLVTVSS VL: DQVMTQSPDSLAVSLGERATINCQSSESVYNNDYLAWYQQKPGQPPKLLIYSASTLASGVPDRFSGSGSGTDFTLTISSLQAEDVAVYYCAGGYLGNNVFGGGTKVEIK | 7.91
* h10C3.V1 HC G49S (antibody, human IgG1, name in Kabat numbering, V domains shown, Framework variant of h10C3.v1 (human IgG1)) VH: EQQLVESGGGLVQPGGSLRLSCAASGFSLSGYTMGWVRQAPGKGLEYISVISSGGTTYYTNWAKGRFTISKDSSKNTVYLQMGSLRAEDMAVYFCARVAFTAYGGGGFPTLHRLDLWGQGTLVTVSS VL: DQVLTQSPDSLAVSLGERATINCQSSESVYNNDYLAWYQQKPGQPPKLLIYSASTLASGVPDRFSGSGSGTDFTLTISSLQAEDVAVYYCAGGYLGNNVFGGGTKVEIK | 7.52
* h10F7.V1 HC Q2V (antibody, human IgG1, name in Kabat numbering, V domains shown, Framework variant of h10F7.v1 (human IgG1)) VH: EVQLVESGGGLVQPGGSLRLSCAVSGFSLSGYAMSWVRQAPGKGLEYIGVISSSGSSYYPSWAKGRFTISKDSSKNTVYLQMGSLRAEDMAVYFCARVQFYVGYAVYGYGIIDRLDLWGQGTLVTVSS VL: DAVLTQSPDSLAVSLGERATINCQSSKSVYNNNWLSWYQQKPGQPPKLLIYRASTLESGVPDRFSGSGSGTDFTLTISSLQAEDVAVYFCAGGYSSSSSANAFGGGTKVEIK | 8.23
* h10C3.V1 LC Q2I (antibody, human IgG1, name in Kabat numbering, V domains shown, Framework variant of h10C3.v1 (human IgG1)) VH: EQQLVESGGGLVQPGGSLRLSCAASGFSLSGYTMGWVRQAPGKGLEYIGVISSGGTTYYTNWAKGRFTISKDSSKNTVYLQMGSLRAEDMAVYFCARVAFTAYGGGGFPTLHRLDLWGQGTLVTVSS VL: DIVLTQSPDSLAVSLGERATINCQSSESVYNNDYLAWYQQKPGQPPKLLIYSASTLASGVPDRFSGSGSGTDFTLTISSLQAEDVAVYYCAGGYLGNNVFGGGTKVEIK | 7.77
